system.name: PI3Kalpha (Homo sapiens, UniProt P42336)
Construct: His (N); host or cells: SF9 insect cells (baculovirus)
Sequence (P42336 whole entry): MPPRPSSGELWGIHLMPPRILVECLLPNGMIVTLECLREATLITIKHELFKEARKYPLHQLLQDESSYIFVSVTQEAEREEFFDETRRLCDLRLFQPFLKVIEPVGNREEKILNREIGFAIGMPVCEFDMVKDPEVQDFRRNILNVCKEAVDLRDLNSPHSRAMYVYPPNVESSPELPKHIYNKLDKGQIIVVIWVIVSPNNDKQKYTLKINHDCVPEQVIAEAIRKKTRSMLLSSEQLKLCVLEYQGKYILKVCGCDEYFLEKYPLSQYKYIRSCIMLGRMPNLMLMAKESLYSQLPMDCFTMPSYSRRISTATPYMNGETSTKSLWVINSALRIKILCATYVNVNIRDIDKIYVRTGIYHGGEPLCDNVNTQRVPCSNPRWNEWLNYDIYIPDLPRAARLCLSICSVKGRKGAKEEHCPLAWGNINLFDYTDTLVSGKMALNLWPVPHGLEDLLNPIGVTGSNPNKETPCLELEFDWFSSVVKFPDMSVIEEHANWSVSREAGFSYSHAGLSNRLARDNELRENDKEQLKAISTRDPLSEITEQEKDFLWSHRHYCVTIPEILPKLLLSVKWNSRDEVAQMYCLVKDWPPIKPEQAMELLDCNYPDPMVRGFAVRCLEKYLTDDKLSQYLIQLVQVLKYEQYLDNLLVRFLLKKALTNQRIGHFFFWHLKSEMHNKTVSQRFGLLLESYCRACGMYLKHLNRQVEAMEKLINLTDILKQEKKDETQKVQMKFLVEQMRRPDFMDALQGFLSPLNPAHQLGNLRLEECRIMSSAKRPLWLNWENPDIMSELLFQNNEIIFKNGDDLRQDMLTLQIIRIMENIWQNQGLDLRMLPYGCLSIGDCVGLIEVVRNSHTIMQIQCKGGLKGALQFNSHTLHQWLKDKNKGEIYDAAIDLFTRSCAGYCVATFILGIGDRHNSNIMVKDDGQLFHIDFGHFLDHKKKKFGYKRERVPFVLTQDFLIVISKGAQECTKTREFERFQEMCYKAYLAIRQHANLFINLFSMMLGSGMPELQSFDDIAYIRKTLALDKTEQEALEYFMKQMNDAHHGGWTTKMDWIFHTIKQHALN
Sequence (P27986 whole entry partner): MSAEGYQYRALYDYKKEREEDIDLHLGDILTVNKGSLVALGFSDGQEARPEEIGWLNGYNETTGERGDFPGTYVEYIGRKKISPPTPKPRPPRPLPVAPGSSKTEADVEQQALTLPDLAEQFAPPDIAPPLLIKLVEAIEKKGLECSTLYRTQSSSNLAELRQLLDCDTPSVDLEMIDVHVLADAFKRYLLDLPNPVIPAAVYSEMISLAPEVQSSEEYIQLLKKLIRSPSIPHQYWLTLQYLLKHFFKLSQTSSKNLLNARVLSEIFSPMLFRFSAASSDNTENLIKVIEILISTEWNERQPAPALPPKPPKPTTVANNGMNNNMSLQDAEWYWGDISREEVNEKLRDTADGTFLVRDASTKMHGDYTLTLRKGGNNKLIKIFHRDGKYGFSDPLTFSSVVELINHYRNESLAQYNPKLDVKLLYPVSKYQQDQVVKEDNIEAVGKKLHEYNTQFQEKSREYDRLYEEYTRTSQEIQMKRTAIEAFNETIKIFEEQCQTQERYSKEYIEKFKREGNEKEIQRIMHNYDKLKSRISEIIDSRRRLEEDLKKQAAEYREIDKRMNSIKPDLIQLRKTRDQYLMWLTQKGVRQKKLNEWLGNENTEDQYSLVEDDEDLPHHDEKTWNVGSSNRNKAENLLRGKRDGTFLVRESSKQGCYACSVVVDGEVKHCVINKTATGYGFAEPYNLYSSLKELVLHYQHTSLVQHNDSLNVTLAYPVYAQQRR
experiment.summary: Human PI3Kα enzyme assay (HTRF)
Format: biochemical
experimental.context: read-out: PI3Kalpha % inh
quantity.name: inhibition at 1.11 µM (%)

COC(=O)c1[nH]c(=O)c2sc(N3CCOCC3)cc2c1-c1ccc(Cl)c(Cl)c1 = 6.62
Clc1ccc(C2Cc3cn[nH]c3-c3sc(-c4ccncc4)cc32)cc1 (centres unmarked) = 9.4
CC1(C)NC(=O)c2sc(-c3ccncc3)cc2C1c1ccc(Cl)cc1 (centres unmarked) = 9.58
Cc1cc(-c2nc3c(s2)C(=O)NCC3c2ccc3ccccc3c2)ccn1 (centres unmarked) = 21.6
N#Cc1c(N2CCOCC2)sc2c1C(c1ccc3ccccc3c1)CNC2=O (centres unmarked) = 89.8
O=Cc1c(N2CCOCC2)sc2c1C(c1ccc(Cl)cc1)CNC2=O (single isomer, unassigned) = 11.1

I: N#Cc1c(N2CCOCC2)sc2c1C(c1ccc(Cl)cc1)CCNC2=O (centres unmarked)
II: O=C1NCCCC(c2ccc(Cl)cc2)c2cc(-c3ccncc3)sc21 (centres unmarked)
Lookup: Compare I and II and name the one whose reported inhibition at 1.11 µM is smaller. Your answer should be the label attached to the chosen record.
Found: II
